# System: p53(15-29)-HDMX interaction
# EXPERIMENT SUMMARY: HDMX IC50 (nM)

>  <SUBSTANCE>
P6: unconstrained reference linear peptide (SEQ ID NO. 44), acyclic counterpart of P7 and P8 (GYSFAEYWNLLA; Engineered Sequence)

>  <SYSTEM TESTED>
p53(15-29)-HDMX interaction

>  <READOUT UNIT>
nM

>  <IC50>
355

$$$$
